Values were extracted from patent US10562947B2.

assay_system: EphA8(h) (Homo sapiens, UniProt P29322)
Sequence (P29322 28-1005): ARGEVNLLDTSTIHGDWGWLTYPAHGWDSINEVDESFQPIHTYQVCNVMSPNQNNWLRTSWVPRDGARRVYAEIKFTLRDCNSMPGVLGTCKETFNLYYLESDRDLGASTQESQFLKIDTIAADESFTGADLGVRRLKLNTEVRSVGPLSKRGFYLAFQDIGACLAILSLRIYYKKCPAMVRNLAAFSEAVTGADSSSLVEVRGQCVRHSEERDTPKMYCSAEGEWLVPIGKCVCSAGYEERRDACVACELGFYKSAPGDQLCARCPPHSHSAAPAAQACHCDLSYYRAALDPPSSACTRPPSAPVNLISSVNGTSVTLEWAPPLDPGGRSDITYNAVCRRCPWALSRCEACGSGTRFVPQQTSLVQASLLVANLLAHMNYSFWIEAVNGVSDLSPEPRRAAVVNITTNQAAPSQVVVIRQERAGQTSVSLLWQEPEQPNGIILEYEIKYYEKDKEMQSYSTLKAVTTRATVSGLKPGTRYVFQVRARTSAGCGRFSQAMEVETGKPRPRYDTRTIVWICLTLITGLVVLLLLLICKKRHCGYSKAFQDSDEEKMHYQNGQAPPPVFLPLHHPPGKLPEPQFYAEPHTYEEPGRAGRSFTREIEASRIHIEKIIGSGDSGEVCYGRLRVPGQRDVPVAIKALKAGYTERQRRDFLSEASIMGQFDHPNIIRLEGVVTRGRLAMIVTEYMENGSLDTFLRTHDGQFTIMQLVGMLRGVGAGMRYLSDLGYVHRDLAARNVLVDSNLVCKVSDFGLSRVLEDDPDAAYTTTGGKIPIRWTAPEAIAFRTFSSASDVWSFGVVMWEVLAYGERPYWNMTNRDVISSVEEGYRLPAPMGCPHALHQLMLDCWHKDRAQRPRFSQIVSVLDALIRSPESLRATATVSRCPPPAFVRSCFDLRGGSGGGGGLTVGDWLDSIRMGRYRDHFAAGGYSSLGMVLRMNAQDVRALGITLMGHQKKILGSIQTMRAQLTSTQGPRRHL
experimental_protocol: Kinase Profiling Assay
Type: biochemical
condition_summary: 100 μM peptide
quantity_kind: EphA8(h) % activity

Would you please look over these solved cases?
chain	assay_result
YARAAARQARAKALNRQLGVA (Mammalian) [MMI-0200]	133%
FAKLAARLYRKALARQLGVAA [MMI-0300]	93%
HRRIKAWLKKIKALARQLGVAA (Mammalian) [MMI-0500]	337%

Note: attention shifts to another entry.
What measured EphA8(h) % activity goes with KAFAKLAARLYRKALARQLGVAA [MMI-0400] ? 146%

---

assay_system: ErbB4(h) (Homo sapiens)
Sequence (Q15303 26-1308): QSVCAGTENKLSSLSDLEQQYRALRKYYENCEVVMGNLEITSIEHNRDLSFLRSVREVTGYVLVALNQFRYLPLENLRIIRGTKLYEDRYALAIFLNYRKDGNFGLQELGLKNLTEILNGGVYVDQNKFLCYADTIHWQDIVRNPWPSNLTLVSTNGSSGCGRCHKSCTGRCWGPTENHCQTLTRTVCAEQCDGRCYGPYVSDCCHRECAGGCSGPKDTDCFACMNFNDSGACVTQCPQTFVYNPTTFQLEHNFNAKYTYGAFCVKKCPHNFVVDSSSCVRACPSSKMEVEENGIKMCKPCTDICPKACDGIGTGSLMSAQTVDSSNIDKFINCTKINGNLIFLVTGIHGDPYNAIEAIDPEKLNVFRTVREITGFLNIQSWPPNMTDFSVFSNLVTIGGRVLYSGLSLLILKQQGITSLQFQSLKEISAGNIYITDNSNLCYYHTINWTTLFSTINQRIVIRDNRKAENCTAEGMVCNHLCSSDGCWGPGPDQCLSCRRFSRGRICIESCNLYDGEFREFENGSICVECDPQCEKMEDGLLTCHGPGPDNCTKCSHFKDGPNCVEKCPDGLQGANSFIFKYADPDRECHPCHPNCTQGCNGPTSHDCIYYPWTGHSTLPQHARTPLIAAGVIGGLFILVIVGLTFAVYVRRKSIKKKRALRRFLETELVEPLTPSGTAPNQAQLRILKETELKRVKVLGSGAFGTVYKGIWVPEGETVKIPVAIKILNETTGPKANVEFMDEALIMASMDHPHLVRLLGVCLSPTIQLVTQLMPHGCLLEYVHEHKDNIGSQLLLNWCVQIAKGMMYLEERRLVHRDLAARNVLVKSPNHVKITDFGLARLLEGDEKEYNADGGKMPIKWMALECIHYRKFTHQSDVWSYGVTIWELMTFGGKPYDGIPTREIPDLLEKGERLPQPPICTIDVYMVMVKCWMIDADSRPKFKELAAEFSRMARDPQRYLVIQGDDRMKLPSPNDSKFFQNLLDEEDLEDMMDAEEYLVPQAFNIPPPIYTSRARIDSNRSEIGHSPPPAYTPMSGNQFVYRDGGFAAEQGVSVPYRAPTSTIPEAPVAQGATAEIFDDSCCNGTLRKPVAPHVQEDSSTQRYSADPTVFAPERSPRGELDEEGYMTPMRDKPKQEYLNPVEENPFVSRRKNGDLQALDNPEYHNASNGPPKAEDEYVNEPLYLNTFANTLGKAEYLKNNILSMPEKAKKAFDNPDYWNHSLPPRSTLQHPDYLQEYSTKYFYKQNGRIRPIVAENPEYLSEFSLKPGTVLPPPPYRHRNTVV
experimental_protocol: Kinase Profiling Assay
Assay type: biochemical
condition_summary: 100 μM peptide
Listed sequences paired with reported ErbB4(h) % activity
Provide the reading as a plain figure in %.

Would you please look over these solved cases?
chain	ErbB4(h) % activity [%]
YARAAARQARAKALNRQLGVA (Mammalian) [MMI-0200]	82
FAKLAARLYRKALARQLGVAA [MMI-0300]	40
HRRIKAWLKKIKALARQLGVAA (Mammalian) [MMI-0500]	2

Note: attention shifts to another entry.
What measured ErbB4(h) % activity goes with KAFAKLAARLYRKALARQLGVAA [MMI-0400] ? 0

---

assay_system: Tie2(h) (Homo sapiens)
experimental_protocol: Kinase Profiling Assay
Format: biochemical
condition_summary: 100 μM peptide
quantity_kind: Tie2(h) % activity (%)
Provide the reading as a plain figure in %.

Would you please look over these solved cases?
chain	Tie2(h) % activity, %
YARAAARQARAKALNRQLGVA (Mammalian) [MMI-0200]	53
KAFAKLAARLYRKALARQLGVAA [MMI-0400]	21
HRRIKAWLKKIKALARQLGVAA (Mammalian) [MMI-0500]	22

Note: attention shifts to another entry.
Kindly state the measured Tie2(h) % activity obtained for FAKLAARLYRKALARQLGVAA [MMI-0300] with Tie2(h) (Homo sapiens). 26

---

Listed sequences paired with reported BRK(h) % activity
assay_system: BRK(h) (Homo sapiens)
Sequence (Q13882 whole entry): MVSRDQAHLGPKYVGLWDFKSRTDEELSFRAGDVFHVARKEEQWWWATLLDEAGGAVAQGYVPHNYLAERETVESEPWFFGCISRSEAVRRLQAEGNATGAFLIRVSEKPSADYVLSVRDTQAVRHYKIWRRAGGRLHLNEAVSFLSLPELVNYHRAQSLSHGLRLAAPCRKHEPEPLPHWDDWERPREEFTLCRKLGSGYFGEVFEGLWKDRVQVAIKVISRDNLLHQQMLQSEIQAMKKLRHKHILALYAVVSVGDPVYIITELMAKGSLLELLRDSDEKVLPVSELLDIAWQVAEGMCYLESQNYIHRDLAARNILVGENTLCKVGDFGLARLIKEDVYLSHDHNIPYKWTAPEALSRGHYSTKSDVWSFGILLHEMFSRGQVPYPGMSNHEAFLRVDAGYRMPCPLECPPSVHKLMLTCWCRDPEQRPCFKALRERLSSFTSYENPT
experimental_protocol: Kinase Profiling Assay
Assay type: biochemical
condition_summary: 100 μM peptide
Provide the reading as a plain figure in %.

Would you please look over these solved cases?
chain	assay_system	assay_result
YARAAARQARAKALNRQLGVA (Mammalian) [MMI-0200]	BRK(h) (Homo sapiens)	127
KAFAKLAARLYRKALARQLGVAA [MMI-0400]	BRK(h) (Homo sapiens)	18
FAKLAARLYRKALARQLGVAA [MMI-0300]	BRK(h) (Homo sapiens)	35

Kindly state the measured BRK(h) % activity obtained for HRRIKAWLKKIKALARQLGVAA (Mammalian) [MMI-0500] with BRK(h) (Homo sapiens). 41

---

assay_system: MAPKAP-K2(h) (Homo sapiens)
Sequence (P49137 whole entry): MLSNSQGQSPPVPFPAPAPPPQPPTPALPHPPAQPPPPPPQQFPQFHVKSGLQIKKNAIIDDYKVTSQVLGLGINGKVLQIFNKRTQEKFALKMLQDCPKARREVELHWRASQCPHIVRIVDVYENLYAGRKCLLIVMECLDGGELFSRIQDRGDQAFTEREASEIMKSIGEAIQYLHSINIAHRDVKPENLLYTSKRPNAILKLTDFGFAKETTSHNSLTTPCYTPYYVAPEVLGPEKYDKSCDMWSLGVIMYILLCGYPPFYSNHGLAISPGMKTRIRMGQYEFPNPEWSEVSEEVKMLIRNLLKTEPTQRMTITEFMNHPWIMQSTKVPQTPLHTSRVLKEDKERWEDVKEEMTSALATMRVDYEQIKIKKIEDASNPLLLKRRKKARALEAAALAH
experimental_protocol: Kinase Profiling Assay
Type: biochemical
condition_summary: 100 μM peptide
Listed sequences paired with reported MAPKAP-K2(h) % activity
Value and unit, in that order.

chain	MAPKAP-K2(h) % activity
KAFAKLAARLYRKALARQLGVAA [MMI-0400]	5%
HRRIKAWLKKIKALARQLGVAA (Mammalian) [MMI-0500]	9%

What measured MAPKAP-K2(h) % activity goes with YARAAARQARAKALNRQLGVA (Mammalian) [MMI-0200] ? 35%

Would you kindly repeat that for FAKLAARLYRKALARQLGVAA [MMI-0300] ? 5%

---

assay_system: GSK3β(h) (Homo sapiens)
Construct: purchased Millipore
Sequence (P49841 whole entry): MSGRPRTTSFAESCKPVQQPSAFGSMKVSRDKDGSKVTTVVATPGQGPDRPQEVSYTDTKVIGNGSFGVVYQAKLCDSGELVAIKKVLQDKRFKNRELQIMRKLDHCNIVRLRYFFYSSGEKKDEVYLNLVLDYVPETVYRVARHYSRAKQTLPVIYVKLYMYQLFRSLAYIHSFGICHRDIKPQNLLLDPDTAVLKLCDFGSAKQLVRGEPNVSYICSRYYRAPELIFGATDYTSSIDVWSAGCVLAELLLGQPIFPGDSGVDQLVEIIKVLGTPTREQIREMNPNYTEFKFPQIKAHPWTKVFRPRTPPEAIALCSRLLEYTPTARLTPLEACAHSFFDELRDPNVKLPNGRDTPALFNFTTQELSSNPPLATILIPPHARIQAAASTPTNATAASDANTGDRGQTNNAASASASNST
experimental_protocol: Kinase Profiling Assay
Assay type: biochemical
condition_summary: 100 μM peptide
Listed sequences paired with reported GSK3β(h) % activity
Provide the reading as a plain figure in %.

chain	value_units	GSK3β(h) % activity
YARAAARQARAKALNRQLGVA (Mammalian) [MMI-0200]	%	132
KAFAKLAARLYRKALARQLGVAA [MMI-0400]	%	202
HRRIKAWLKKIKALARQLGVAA (Mammalian) [MMI-0500]	%	238

Note: attention shifts to another entry.
Kindly state the measured GSK3β(h) % activity obtained for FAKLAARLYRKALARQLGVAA [MMI-0300] with GSK3β(h) (Homo sapiens). 205

---

Listed sequences paired with reported Met(h) % activity
assay_system: Met(h) (Homo sapiens, UniProt P08581)
experimental_protocol: Kinase Profiling Assay
Type: biochemical
condition_summary: 100 μM peptide
Provide the reading as a plain figure in %.

chain	assay_result
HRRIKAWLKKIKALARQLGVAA (Mammalian) [MMI-0500]	27
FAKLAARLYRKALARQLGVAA [MMI-0300]	65
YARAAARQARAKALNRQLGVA (Mammalian) [MMI-0200]	71

Note: attention shifts to another entry.
What measured Met(h) % activity goes with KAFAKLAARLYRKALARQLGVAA [MMI-0400] ? 62

---

assay_system: Met(D1246N)(h) (Homo sapiens, UniProt P08581, D1228N)
experimental_protocol: Kinase Profiling Assay
Format: biochemical
condition_summary: 100 μM peptide
quantity_kind: Met(D1246N)(h) % activity
Value and unit, in that order.

Would you please look over these solved cases?
chain	assay_system	quantity_kind	assay_result
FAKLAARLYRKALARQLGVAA [MMI-0300]	Met(D1246N)(h) (Homo sapiens, UniProt P08581, D1228N)	Met(D1246N)(h) % activity	82%
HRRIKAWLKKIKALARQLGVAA (Mammalian) [MMI-0500]	Met(D1246N)(h) (Homo sapiens, UniProt P08581, D1228N)	Met(D1246N)(h) % activity	90%
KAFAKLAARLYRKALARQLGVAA [MMI-0400]	Met(D1246N)(h) (Homo sapiens, UniProt P08581, D1228N)	Met(D1246N)(h) % activity	31%

Note: attention shifts to another entry.
What measured Met(D1246N)(h) % activity goes with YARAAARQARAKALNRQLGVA (Mammalian) [MMI-0200] ? 149%

---

assay_system: STK33(h) (Homo sapiens)
Sequence (Q9BYT3 whole entry): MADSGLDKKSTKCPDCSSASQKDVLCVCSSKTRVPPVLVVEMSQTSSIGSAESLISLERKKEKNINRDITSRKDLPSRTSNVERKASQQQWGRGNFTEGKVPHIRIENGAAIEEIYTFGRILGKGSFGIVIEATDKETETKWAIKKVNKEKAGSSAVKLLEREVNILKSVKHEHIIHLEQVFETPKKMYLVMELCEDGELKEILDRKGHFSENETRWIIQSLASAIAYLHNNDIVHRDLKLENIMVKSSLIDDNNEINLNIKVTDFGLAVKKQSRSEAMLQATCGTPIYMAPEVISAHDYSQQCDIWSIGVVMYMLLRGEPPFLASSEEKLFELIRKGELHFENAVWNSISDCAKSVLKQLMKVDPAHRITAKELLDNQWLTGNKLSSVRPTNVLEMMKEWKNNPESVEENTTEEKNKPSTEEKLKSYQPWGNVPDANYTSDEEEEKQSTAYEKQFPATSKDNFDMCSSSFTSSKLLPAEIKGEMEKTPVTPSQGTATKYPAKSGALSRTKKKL
experimental_protocol: Kinase Profiling Assay
Assay type: biochemical
condition_summary: 100 μM peptide
quantity_kind: STK33(h) % activity
Value and unit, in that order.

Would you please look over these solved cases?
chain	quantity_kind	assay_result
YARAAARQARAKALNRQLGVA (Mammalian) [MMI-0200]	STK33(h) % activity	98%
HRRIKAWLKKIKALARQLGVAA (Mammalian) [MMI-0500]	STK33(h) % activity	16%
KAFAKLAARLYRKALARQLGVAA [MMI-0400]	STK33(h) % activity	52%

Note: attention shifts to another entry.
What measured STK33(h) % activity goes with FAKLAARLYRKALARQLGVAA [MMI-0300] ? 45%

---

assay_system: PRK2(h) (Homo sapiens, UniProt Q16513)
Construct: purchased Millipore (IC50 Profiler Express service)
Sequence (Q16513 whole entry): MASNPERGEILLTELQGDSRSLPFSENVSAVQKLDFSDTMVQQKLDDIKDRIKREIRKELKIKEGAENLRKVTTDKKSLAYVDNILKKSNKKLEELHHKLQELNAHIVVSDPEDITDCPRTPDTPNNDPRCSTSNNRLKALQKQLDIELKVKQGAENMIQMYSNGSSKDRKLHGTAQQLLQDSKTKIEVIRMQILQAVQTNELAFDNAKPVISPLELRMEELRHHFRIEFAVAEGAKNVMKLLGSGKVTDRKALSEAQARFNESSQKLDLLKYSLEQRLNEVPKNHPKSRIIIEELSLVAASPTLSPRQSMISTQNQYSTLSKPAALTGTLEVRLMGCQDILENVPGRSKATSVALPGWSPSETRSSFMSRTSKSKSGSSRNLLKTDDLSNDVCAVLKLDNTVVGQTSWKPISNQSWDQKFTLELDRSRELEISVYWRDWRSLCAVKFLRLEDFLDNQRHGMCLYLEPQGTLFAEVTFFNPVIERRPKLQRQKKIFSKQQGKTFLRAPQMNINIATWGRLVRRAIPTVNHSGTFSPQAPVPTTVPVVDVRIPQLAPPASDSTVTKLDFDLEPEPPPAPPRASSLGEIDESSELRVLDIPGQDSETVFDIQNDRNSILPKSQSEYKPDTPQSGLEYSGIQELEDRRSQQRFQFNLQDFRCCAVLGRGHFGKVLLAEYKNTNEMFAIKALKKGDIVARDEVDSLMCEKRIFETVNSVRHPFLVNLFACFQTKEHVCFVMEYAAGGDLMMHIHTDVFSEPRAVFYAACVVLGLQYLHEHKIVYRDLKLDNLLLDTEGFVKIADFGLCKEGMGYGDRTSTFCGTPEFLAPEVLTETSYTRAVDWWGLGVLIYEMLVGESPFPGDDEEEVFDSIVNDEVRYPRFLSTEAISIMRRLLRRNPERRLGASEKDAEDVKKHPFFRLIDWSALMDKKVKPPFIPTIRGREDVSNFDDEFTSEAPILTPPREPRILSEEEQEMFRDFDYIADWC
experimental_protocol: Kinase Profiling Assay
Format: biochemical
condition_summary: 100 μM peptide
quantity_kind: PRK2(h) % activity
Value and unit, in that order.

Would you please look over these solved cases?
chain	assay_result
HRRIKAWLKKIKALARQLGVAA (Mammalian) [MMI-0500]	7%
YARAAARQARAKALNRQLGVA (Mammalian) [MMI-0200]	74%
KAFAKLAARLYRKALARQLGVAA [MMI-0400]	27%

What measured PRK2(h) % activity goes with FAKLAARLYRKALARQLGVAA [MMI-0300] ? 33%
